Values compiled from paper PMC6348443.

Measured on: DOR (Homo sapiens)
Construct: host or cells: CHO (CHO-hDOR)
Sequence (P41143 whole entry): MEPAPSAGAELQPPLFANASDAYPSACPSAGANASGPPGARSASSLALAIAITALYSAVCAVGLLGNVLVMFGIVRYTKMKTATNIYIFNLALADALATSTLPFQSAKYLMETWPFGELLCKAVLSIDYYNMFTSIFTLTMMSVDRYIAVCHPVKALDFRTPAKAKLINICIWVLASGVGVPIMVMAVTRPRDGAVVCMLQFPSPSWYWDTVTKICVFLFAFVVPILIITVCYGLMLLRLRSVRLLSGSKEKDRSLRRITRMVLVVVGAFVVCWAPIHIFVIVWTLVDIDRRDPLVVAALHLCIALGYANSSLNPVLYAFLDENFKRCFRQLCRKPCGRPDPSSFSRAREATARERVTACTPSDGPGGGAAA
Assay remarks: [35S]GTPγS binding assay, CHO-hDOR membranes
Assay type: biochemical
Measurement setup: relative to reference full agonist DPDPE; read-out: DOR % stim.
Measured parameter: Emax (%)
Please reply with the bare figure in % and do not write the unit itself.

Report measured Emax; entry is CO[C@@]12CC[C@H](NCCCC(=O)O)[C@@H]3Oc4c(O)ccc5c4[C@@]31CCN(C)[C@@H]2C5 [Compound 21a]
103

Report measured Emax; entry is CO[C@@]12CC[C@H](N[C@@H](CO)C(=O)O)[C@@H]3Oc4c(O)ccc5c4[C@@]31CCN(C)[C@@H]2C5
101

Report measured Emax; entry is CO[C@@]12CC[C@H](N[C@@H](CCC(N)=O)C(=O)O)[C@@H]3Oc4c(O)ccc5c4[C@@]31CCN(C)[C@@H]2C5 [Compound 12a]
104
